Property: Human ENTPD2 NIH/3T3 Assay IC50; scope: individual binders
ASSAY SYSTEM: T1, human ENTPD2, full length, on cells (human, UniProt Q9Y5L3 1-495)
T1 sequence: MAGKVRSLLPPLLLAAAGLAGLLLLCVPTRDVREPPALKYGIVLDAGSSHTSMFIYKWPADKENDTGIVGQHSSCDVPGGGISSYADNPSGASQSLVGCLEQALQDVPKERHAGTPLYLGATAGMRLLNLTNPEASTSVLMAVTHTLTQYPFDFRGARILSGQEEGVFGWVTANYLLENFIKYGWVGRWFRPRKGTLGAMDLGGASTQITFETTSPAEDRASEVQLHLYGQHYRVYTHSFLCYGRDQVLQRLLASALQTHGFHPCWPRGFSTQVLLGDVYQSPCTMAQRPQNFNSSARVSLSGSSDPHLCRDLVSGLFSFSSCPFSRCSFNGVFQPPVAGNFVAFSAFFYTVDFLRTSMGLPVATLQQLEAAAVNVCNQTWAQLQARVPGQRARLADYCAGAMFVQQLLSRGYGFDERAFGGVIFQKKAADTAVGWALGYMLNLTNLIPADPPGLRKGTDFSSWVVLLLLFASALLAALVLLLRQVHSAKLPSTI
EXPERIMENT: cell-based or functional assay

- BINDER: "ANTI-HUMAN ENTPD2 MAB5 (antibody, human IgG1, kappa, V domains shown) VH: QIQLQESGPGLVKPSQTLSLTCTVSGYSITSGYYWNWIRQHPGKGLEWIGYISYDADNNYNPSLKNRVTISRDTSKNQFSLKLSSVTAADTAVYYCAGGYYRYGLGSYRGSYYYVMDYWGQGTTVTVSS VL: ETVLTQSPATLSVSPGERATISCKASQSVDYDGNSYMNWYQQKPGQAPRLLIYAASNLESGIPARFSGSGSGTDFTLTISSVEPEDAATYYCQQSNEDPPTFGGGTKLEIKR"
  UNITS OF MEASURE: "nM"
  READING QUALIFIER: "="
  Human ENTPD2 NIH/3T3 Assay IC50: 0.3
- BINDER: "ANTI-HUMAN ENTPD2 MAB16 (antibody, human IgG1, kappa, V domains shown) VH: DIQLQESGPGLVKPSQSLSLTCSVTGYSITSGYYWNWIRQFPGNKLEWMGYISYDGDNNYNPSLKNRISITRDTSKNQFFLKLSSVTTEDTATYYCAGGYYRYGLSYYYVMDYWGQGTSVTVSS VL: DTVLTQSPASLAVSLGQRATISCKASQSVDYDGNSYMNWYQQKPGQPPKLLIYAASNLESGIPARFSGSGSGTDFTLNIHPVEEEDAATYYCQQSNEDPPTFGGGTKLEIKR"
  UNITS OF MEASURE: "nM"
  READING QUALIFIER: ">"
  Human ENTPD2 NIH/3T3 Assay IC50: 133
- BINDER: "ANTI-HUMAN ENTPD2 MAB9 (antibody, human IgG1, lambda, V domains shown) VH: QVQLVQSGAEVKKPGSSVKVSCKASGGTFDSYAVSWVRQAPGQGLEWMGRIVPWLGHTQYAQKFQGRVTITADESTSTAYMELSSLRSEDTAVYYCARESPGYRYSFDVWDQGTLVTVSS VL: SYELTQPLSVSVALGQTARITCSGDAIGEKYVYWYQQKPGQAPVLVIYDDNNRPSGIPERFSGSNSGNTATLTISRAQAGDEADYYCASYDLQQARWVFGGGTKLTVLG"
  UNITS OF MEASURE: "nM"
  READING QUALIFIER: "="
  Human ENTPD2 NIH/3T3 Assay IC50: 0.3
- BINDER: "ANTI-HUMAN ENTPD2 MAB4 (antibody, human IgG1, kappa, V domains shown) VH: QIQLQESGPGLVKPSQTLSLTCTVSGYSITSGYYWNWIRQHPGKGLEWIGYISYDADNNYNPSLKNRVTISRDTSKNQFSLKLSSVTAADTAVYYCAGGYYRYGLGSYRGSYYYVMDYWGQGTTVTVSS VL: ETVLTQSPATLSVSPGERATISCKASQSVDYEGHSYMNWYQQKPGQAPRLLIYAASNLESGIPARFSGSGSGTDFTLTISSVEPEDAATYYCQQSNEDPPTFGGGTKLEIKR"
  UNITS OF MEASURE: "nM"
  READING QUALIFIER: "="
  Human ENTPD2 NIH/3T3 Assay IC50: 0.2
- BINDER: "ANTI-HUMAN ENTPD2 MAB1 (antibody, human IgG1, kappa, V domains shown) VH: EVQLVQSGAEVKKPGESLKISCKASGYTFTDYNMDWVRQMPGKGLEWMGDINPKYDISTYNQQFKGQVTISADKSIRTAYLQWSSLKASDTAMYYCARRGFFLYYGINYYYFDVWGQGTLVTVSS VL: DIQLTQSPSSLSASVGDRVTITCSASSSVSYIHWFQQKPGKAPKLLIYSTSNLASGVPSRFSGSGSGTFFTLTISSLQPEDFATYFCHQWSSYPWTFGQGTKVEIKR"
  UNITS OF MEASURE: "nM"
  READING QUALIFIER: "="
  Human ENTPD2 NIH/3T3 Assay IC50: 1.1
